# assayed system: short form of the GPR120 receptor (Homo sapiens)
# Sequence (Q5NUL3 whole entry): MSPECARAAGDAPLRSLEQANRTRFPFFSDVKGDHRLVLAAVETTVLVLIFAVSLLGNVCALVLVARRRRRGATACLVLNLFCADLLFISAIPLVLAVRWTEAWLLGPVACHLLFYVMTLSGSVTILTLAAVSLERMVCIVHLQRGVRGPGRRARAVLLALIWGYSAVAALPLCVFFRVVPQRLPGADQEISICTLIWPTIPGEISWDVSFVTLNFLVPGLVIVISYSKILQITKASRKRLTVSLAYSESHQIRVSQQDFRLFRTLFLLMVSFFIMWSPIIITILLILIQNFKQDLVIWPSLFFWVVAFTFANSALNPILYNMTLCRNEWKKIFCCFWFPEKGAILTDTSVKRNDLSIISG
# Sequence (P32121 whole entry partner): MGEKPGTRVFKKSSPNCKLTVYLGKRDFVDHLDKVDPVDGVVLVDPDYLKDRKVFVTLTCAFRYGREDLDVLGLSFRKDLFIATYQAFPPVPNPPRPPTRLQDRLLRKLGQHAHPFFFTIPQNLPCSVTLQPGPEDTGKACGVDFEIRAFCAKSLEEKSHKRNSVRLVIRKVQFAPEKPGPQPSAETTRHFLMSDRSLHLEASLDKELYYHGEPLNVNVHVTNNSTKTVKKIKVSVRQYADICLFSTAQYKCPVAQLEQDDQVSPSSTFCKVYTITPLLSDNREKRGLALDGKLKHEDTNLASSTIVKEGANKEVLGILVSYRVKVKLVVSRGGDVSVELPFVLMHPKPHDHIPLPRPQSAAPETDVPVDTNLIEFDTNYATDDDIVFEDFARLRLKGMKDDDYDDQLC
# method notes: Human GPR120 DiscoveRx PathHunter Beta-Arrestin assay, Procedure β-arrestin B
pEC50 listing for selected compounds.
Notebook: values listed as pEC50 are -log10 of the concentration (mol/L).

Cc1ccccc1C1=C(COc2ccc(CCC(=O)O)c(C)c2C)CCC1    5.74
Cc1c(CCC(=O)O)ccc(OCC2=C(c3ccc(F)cc3)CCC2)c1C    6.79
Cc1c(CCC(=O)O)ccc(OCC2=C(c3ccc(Cl)cc3)CCC2)c1C    6.91
Cc1c(CCC(=O)O)ccc(OCC2=C(c3ccc(Cl)cc3)CCC(F)(F)C2)c1C    6.61
Cc1c(CCC(=O)O)ccc(OCC2=C(c3ccc(Cl)cc3)CCCC2)c1C    5.99

Identify the reported pEC50 for the following entry. `Cc1c(CCC(=O)O)ccc(OCC2=C(c3ccc(F)c(F)c3)CCC2)c1C` 6.72

Identify the reported pEC50 for the following entry. `COc1cc(F)cc(C2=C(COc3ccc(CCC(=O)O)c(C)c3C)CCC2)c1` 5.79

Identify the reported pEC50 for the following entry. `Cc1ccc(C2=C(COc3c(F)cc(CCC(=O)O)cc3F)CCC2)cc1C` 6.27

Identify the reported pEC50 for the following entry. `CSc1ccc(C2=C(COc3ccc(CCC(=O)O)c(C)c3C)CCC2)cc1` 6.15

Identify the reported pEC50 for the following entry. `Cc1ccc(C2=C(COc3ccc(CCC(=O)O)c(C)c3C)CCC2)cc1` 7.20

Every entry's value here was drawn from patent US11230526B1.
